test: Half life in rat at 5 mg/kg, iv; type: ADME, organism-based; conditions: in vivo
reported.property: half-life (h)
Response body: numeric value in h, unit text excluded.

For the compound "CCC(=O)c1sc(-c2cccc(F)c2)nc1O" , report half-life.
3.15

----------
assay: Volume of distribution at steady state in rat at 3 mg/kg, iv; format: ADME, organism-based; settings: in vivo, read-out: Vdss
reported.property: Vd (L/kg)
Response body: numeric value in L/kg, unit text excluded.

For the compound "CCn1nnc(-c2sc(-c3cccc(F)c3)nc2O)n1" , report Vd.
0.082

----------
assay: Volume of distribution at steady state in rat at 5 mg/kg, iv; assay type: ADME, organism-based; settings: in vivo, read-out: Vdss
reported.property: Vd (L/kg)
Response body: numeric value in L/kg, unit text excluded.

For the compound "CCC(=O)c1sc(-c2cccc(F)c2)nc1O" , report Vd.
1.69

Origin of the recorded values: ChEMBL document CHEMBL5260854
